B1: Caulobacter ParB omega fusion; a variant is named by its letters at X, in order, B8GW30 (parent)
chain: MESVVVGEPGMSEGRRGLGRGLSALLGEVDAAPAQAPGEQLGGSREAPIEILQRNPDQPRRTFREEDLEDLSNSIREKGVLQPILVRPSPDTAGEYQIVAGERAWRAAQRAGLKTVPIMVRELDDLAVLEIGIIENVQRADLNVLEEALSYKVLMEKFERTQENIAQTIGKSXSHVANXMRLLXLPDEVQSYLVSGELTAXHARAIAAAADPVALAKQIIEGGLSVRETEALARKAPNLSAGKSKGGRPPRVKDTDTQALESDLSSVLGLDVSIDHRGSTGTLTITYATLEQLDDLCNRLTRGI

- Variants of: B1
- Assay Remarks: one-hybrid fitness for binding NBS DNA (the Noc-binding site; scaled: cognate 1, non-cognate 0); higher = stronger binding
- Measurement Context: with NBS DNA site
The full ranking holds about 81,000 sequences; the median of “one-hybrid fitness for binding NBS DNA” is about -0.1, and the highest 2% start at about 0.36. This is one part of a sample in which the highest values are shown more often than they occur.

Variant Descriptor	one-hybrid fitness for binding NBS DNA
DVCT	≤ 0.2
SRTT	≤ 0.2
ARGT	≤ 0.2
QQDS	0.282
RKDR	0.443
QQLS	0.373
YLQI	≤ 0.2
QQNS	0.515
ARSS	≤ 0.2
YMTS	≤ 0.2
RYPR	≤ 0.2
YAMK	≤ 0.2
QQGP	≤ 0.2
TYVN	≤ 0.2
KCRR	0.46
SVQD	≤ 0.2
DNSY	≤ 0.2
KIDS	≤ 0.2
QQNM	0.206
RYGR	0.432
KSRR	0.343
RQDG	≤ 0.2
KFVF	≤ 0.2
